Species: Rattus norvegicus
Test name: Open TG-GATES - Regimen: Single
Assay type: toxicity, organism-based, Sprague-Dawley
Parameters: regimen Single, gender Male, age 6 weeks
Measurement setup: in vivo, po, 0 mg/kg, 3 h, tissue Blood, route gavage, dose level Control
Property measured: MCHC (%)
Provide the reading as a plain figure in %.

Request: Dear colleague, I am looking for the recorded MCHC of the following compound: "O=C(O)c1cc(/N=N/c2ccc(S(=O)(=O)Nc3ccccn3)cc2)ccc1O"
Result: 33.4

Request: Repeat with "COc1ccc(Cc2nccc3cc(OC)c(OC)cc23)cc1OC"
Result: 33.5

Request: Repeat with CSc1ccc2c(c1)N(CCC1CCCCN1C)c1ccccc1S2 (stereo not drawn)
Result: 33.2
